Assignment: determine reported kd for the given molecules.
Molecular target: cynomolgus monkey CD98 ECD
Sequence (as listed by the source): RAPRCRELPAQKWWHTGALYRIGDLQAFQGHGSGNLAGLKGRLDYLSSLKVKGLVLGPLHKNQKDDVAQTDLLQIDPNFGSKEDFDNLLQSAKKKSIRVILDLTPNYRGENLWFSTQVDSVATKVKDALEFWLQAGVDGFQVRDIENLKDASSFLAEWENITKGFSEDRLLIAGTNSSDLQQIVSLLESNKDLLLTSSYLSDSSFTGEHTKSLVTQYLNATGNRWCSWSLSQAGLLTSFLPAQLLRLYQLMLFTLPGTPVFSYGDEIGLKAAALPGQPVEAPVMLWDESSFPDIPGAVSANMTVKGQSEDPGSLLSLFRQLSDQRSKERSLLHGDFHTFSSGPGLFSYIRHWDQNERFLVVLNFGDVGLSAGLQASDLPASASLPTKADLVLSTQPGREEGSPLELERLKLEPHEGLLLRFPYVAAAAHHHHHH
Experiment: Biacore surface plasmon resonance binding kinetics (anti-Fc capture)
Conditions: cyCD98 ECD
Answers are plain numbers, in s⁻¹.

Example cases with answers are listed next.
Ask | Field request: kd | item: huAb15v1 (antibody, V domains shown) VH: EVQLVESGGGVVQPGRSLRLSCAASGFTFSDYTMAWVRQAPGKGLEWVATIIYSGRGTYYRDAVKGRFTISRDNSKSTLYLQMNSLRAEDTAVYYCARQSDHTYYYWGYFDYWGQGTMVTVSS VL: DIVMTQSPDSLAVSLGERATINCKSSQSLLFSGNQKNYLAWYQQKPGQSPKLLIYWASTRQSGVPDRFSGSGSGTDFTLTIRSLQAEDVAIYYCQQYYDVPYTFGQGTKLEIK
Reply | 2.6e-05

Ask | Field request: kd | item: huAb15v2 (antibody, V domains shown) VH: EVQLVESGGGVVQPGRSLRLSCAASGFTFSDYTMAWVRQAPGKGLEWVATIIYSGRGTYYRDAVKGRFTISRDNSKSTLYLQMNSLRAEDTAVYYCARQSDDTYYYWGYFDYWGQGTMVTVSS VL: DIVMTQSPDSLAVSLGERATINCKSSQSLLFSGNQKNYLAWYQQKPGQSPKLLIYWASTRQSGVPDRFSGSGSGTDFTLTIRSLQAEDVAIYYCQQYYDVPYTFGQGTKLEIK
Reply | 4.8e-05

Attention now shifts to the item below.
Ask | Field request: kd | item: huAb109: "heavy chain variable sequence of huAb109 is provided in SEQ ID NO: 116"; "light chain variable sequence ... in SEQ ID NO: 117" (antibody, V domains shown) VH: EVQLVESGGGLVQPGGSLRLSCAASGFTFSDYTMAWVRQAPGKGLEWVATIIYDARGTYYRDAVKGRFTISRDNAKNTLYLQMNSLRAEDTAVYYCARQSDDTYYYWGYFDYWGQGTMVTVSS VL: DIVMTQTPLSLPVTPGEPASINCKSSQSLLFSGNQKNYLAWYLQKPGQSPQLLIYWASTRQSGVPDRFSGSGSGTDFTLKISRVEAEDVGIYYCQQYYSSPYTFGQGTKLEIK
Reply | 0.00031
